biological target: KRAS G13D (Homo sapiens (Human), UniProt P01116+P62937, G13D); assay: Ras-Raf disruption/FRET/MOA assay (BRAF RBD, Cyclophilin A); assay type: biochemical; details: read-out: KRAS G13D FRET data IC50
Sequence (P01116 other isoform, or with tags, fused parts or gaps G13D): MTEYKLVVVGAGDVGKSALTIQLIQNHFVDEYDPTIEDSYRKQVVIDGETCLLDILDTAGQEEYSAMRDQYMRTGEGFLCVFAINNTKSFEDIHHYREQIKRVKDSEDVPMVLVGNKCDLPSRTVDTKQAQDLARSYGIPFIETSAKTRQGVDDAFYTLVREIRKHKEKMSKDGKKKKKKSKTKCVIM
Sequence (P62937 whole entry): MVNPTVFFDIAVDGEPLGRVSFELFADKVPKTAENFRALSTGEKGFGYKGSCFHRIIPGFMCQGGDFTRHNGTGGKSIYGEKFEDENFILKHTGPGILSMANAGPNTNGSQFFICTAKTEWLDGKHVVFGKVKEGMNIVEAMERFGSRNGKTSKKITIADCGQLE
Measured IC50 values are reported for all entries that follow.

Look over these answered cases.
Form: molecule = CCn1c(-c2cccnc2[C@H](C)OC)c2c3cc(ccc31)-c1csc(n1)C[C@H](NC(=O)[C@H](C(C)C)N(C)C(=O)N(C)C1COC1)C(=O)N1CCC[C@H](N1)C(=O)OCC(C)(C)C2 ; IC50 = 100 to 1000 nM

Entry CCn1c(-c2cccnc2[C@H](C)OC)c2c3cc(ccc31)-c1csc(n1)C[C@H](NC(=O)[C@H](C(C)C)N(C)C(=O)N1CC3CCC1CN3C)C(=O)N1CCC[C@H](N1)C(=O)OCC(C)(C)C2 — recorded IC50 = 1000 to 10000 nM

Measured IC50 of CCn1c(-c2cccnc2[C@H](C)OC)c2c3cc(ccc31)-c1csc(n1)C[C@H](NC(=O)[C@H](C(C)C)N(C)C(=O)N1CCC[C@H]1c1ccccc1)C(=O)N1CCC[C@H](N1)C(=O)OCC(C)(C)C2 : 1000 to 10000 nM

Now look at this one.
Input CCn1c(-c2cccnc2[C@H](C)OC)c2c3cc(ccc31)-c1cc(O)cc(c1)C[C@H](NC(=O)[C@H](C(C)C)N(C)C(=O)[C@H]1CCN(C(=O)C(C)(C)NC)C1)C(=O)N1CCC[C@H](N1)C(=O)OCC(C)(C)C2 . Output IC50: 10 to 100 nM

---

Listing of entries alongside the reported pIC50.
target: KRAS G12V (Homo sapiens (Human), UniProt P01116+P62937, G12V); test: Ras-Raf disruption/FRET/MOA assay (BRAF RBD, Cyclophilin A); assay type: biochemical; conditions: read-out: KRAS G12V FRET IC50
Sequence (P01116 other isoform, or with tags, fused parts or gaps G12V, one chain of several): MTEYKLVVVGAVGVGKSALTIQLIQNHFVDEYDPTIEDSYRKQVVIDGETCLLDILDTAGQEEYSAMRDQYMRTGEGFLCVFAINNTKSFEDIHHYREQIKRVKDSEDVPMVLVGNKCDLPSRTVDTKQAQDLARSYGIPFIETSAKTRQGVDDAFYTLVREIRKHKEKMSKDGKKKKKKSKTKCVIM
pIC50: −log10 of the molar value.

Looking up CCn1c(-c2cccnc2[C@H](C)OC)c2c3cc(ccc31)-c1cc(O)cc(c1)C[C@H](NC(=O)[C@H](C(C)C)N(C)C(=O)C1CCNC13CCC3)C(=O)N1CCC[C@H](N1)C(=O)OCC(C)(C)C2 (some centres unmarked) , I see its pIC50 listed as 6.00 to 7.00

Others:
Field pIC50 (entry CCn1c(-c2cccnc2[C@H](C)OC)c2c3cc(ccc31)-c1cc(O)cc(c1)C[C@H](NC(=O)[C@H](C(C)C)N(C)C(=O)[C@H]1CCN(C3CC3)C1)C(=O)N1CCC[C@H](N1)C(=O)OCC(C)(C)C2 ) reads < 5.00

---

target: KRAS G12V (Homo sapiens (Human), UniProt P01116+P62937, G12V); assay: Ras-Raf disruption/FRET/MOA assay (BRAF RBD, Cyclophilin A); type: biochemical; conditions: read-out: KRAS G12V FRET IC50
pIC50: −log10 of the molar value.
measurement.kind: pIC50

Recorded pIC50, per entry:
The measured pIC50 associated with CCn1c(-c2cccnc2[C@H](C)OC)c2c3cc(ccc31)-c1csc(n1)C[C@H](NC(=O)[C@H](C(C)C)N(C)C(=O)N1CC([C@H](CO)OC)C1)C(=O)N1CCC[C@H](N1)C(=O)OCC(C)(C)C2 reads 6.00 to 7.00

Record CCn1c(-c2cccnc2[C@H](C)OC)c2c3cc(ccc31)-c1csc(n1)C[C@H](NC(=O)[C@H](C(C)C)N(C)C(=O)N1CC(C(=O)N3CCOCC3)C1)C(=O)N1CCC[C@H](N1)C(=O)OCC(C)(C)C2 , field pIC50: 6.00 to 7.00

// pIC50 value for CCn1c(-c2cccnc2[C@H](C)OC)c2c3cc(ccc31)-c1cc(O)cc(c1)C[C@H](NC(=O)[C@H](C(C)C)N(C)C(=O)[C@H]1CCN(C(C)=O)C1)C(=O)N1CCC[C@H](N1)C(=O)OCC(C)(C)C2 : 7.00 to 8.00

Quick note, pIC50 for CCn1c(-c2cnccc2COC)c2c3cc(ccc31)-c1cc(O)cc(c1)C[C@H](NC(=O)[C@H](C(C)C)N(C)C(=O)N1CCN(C)CC1)C(=O)N1CCC[C@H](N1)C(=O)OCC(C)(C)C2 landed at 5.00 to 6.00

Continuing:
Documented pIC50 of CCn1c(-c2cccnc2[C@H](C)OC)c2c3cc(ccc31)-c1csc(n1)C[C@H](NC(=O)[C@H](C(C)C)N(C)C(=O)N1C[C@H]3CCN(C)[C@H]3C1)C(=O)N1CCC[C@H](N1)C(=O)OCC(C)(C)C2 : 6.00 to 7.00

get_value(item= CCn1c(-c2cnccc2COC)c2c3cc(ccc31)-c1cc(O)cc(c1)C[C@H](NC(=O)[C@H](C(C)C)N(C)C(=O)[C@H]1CCN(C[C@@H](C)O)C1)C(=O)N1CCC[C@H](N1)C(=O)OCC(C)(C)C2 , readout=pIC50) returns 5.00 to 6.00

# compound CCn1c(-c2cccnc2[C@H](C)OC)c2c3cc(ccc31)-c1cccc(c1)C[C@H](NC(=O)[C@H](C(C)C)N(C)C(=O)[C@@H]1OCC[C@@H]1c1ccccc1)C(=O)N1CCC[C@H](N1)C(=O)OCC(C)(C)C2 ; its pIC50 = 6.00 to 7.00

The measured pIC50 associated with CCn1c(-c2cc(N3CCN(C)CC3)cnc2[C@H](C)OC)c2c3cc(ccc31)-c1nc(co1)C[C@H](NC(=O)[C@H]1[C@H](C)[C@@H]1C)C(=O)N1CCC[C@H](N1)C(=O)OCC(C)(C)C2 reads 7.00 to 8.00

Noted for CCn1c(-c2cccnc2[C@H](C)OC)c2c3cc(ccc31)-c1csc(n1)C[C@H](NC(=O)[C@H](C(C)C)N(C)C(=O)N1C[C@@H]3OCCN(C)[C@H]3C1)C(=O)N1CCC[C@H](N1)C(=O)OCC(C)(C)C2 : its pIC50 reads 6.00 to 7.00
